- study-system: T1, PCSK9 D374Y mutant protein inserted with biotin receiving peptide BP15 and His-tag: PCSK9-D374Y-BP15-His6 (human, UniProt Q8NBP7 153-692; A8T644 31-152, biotin on the BP15 biotin receiving peptide)
- T1 construct: also called PCSK9-Y; mutant PCSK9
- test-summary: ELISA, biotin PCSK9-Y on streptavidin plate
- Experimental: The binding ability of anti-PCSK9 antibodies of the present invention to PCSK9-Y protein (mutant PCSK9, SEQ ID NO: 6) was detected by measuring the amounts of antibodies binding to PCSK9-Y immobilized on the ELISA plate. Streptavidin (sigma, CAT #S4762) was diluted to 2 μg/ml with PBS and was added into a 96-well ELISA plate, at 4° C. for overnight. […] Finally, the stop buffer was added and the OD450 value was measured on the Microplate reader, and then EC50 was calculated.

binder	EC50 (ng/mL)
h011-3050 (antibody, V domains shown) VH: QVQLVQSGAEVKKPGASVKVSCKASGYTFTGYTIHWVRQAPGQGLEWMGEILPSSTYTKFNQKFKDRVTMTRDTSISTAYMELSRLRSDDTAVYYCARERIYSNYWFFDVWGQGTTVTVSS VL: DIVMTQSPSSLSASVGDRVTITCKASQNVYTAVAWYQQKPGKSPKLLIYSASNRYTGVPSRFSGSGSGTDFTLTISSLQPEDFATYFCQQYSSYPYTFGGGTKVEIK	5.25
h011-3147 (antibody, V domains shown) VH: QVQLVQSGAEVKKPGASVKVSCKASGYTFTGYTIHWVRQAPGQGLEWMGEIIPSSTYTKFNQKFKDRVTMTRDTSISTAYMELSRLRSDDTAVYYCARERIYSNYWFFDVWGQGTTVTVSS VL: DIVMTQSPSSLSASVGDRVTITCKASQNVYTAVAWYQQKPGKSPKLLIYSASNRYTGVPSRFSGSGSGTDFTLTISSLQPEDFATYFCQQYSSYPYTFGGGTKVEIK	6.68
h011-3133 (antibody, V domains shown) VH: QVQLVQSGAEVKKPGASVKVSCKASGYTFTGYEIHWVRQAPGQGLEWMGYINPSATYTKFNQKFKDRVTMTRDTSISTAYMELSRLRSDDTAVYYCARERIYSNYWFFDVWGQGTTVTVSS VL: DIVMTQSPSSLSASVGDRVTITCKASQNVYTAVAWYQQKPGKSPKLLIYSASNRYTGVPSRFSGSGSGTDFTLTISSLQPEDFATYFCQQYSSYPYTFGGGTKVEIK	4.92
